experimental-target: T1, human IL4Rα expressed on 293F-IL4Rα cells (human, UniProt P24394 26-825)
T1 construct: whole, on cells; also called cell surface human IL4Rα
experiment-notes: flow cytometry, 293F-IL4Rα cells
measurement-type: EC50 (nM)
Just the number please, in nM, no unit attached.

Query: What value of EC50 has been reported for the following binder? chimeric antibody B8G11F2B7G5E8 (antibody, human IgG4 S228P, kappa, V domains shown, Mouse variable domains on human IgG4/kappa; also called Chimeric B8G11F2B7G5E8; chB8G11F2B7G5E8) VH: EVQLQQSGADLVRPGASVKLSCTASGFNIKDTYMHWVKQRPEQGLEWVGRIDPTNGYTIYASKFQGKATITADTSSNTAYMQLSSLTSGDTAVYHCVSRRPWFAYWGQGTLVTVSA VL: DILMTQTPLSLPVSLGAQASISCRSSQSIVHSNGNTYLEWYLQKPGQSPKLLIYKVTNRFSGVPDRFSGSGSGTDFTLKISRVEAEDLGIYYCFQGSHVPYTFGGGTKLEIKR
Reply: 0.44

Query: // next record mouse antibody B8G11F2B7G5E8 (antibody, V domains shown, Mouse hybridoma mAb; also called Mouse B8G11F2B7G5E8; mAb B8G11F2B7G5E8) VH: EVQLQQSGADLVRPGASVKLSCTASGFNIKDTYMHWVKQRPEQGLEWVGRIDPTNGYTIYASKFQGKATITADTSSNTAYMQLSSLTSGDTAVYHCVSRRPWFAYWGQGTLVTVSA VL: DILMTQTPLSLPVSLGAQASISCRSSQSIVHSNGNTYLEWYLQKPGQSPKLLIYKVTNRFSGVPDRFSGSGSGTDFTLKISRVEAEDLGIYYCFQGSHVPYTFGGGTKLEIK
Reply: 0.33

Query: // next record huB8G11F2B7G5E8-V4 (antibody, human IgG4 S228P, kappa, V domains shown, Humanized, human IgG4/kappa; also called huBSG11F2B7G5E8-V4) VH: EVQLVQSGAEVKKPGATVKISCKASGFNIKDTYMHWVKQAPGKGLEWMGRIDPTNGYTIYASKFQGKATITADTSSNTAYMELSSLRSEDTAVYHCVSRRPWFAYWGQGTLVTVSS VL: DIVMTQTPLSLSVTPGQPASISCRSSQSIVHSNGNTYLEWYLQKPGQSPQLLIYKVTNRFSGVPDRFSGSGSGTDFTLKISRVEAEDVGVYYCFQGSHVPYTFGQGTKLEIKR
Reply: 0.41

Attribution: patent US20230105029A1
